B1: glmS ribozyme (parent)
chain: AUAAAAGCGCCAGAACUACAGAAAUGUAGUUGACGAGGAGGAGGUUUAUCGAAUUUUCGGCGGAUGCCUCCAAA

# Variants of: B1
# PROTOCOL_TEXT: self-cleavage kobs at 40 uM GlcN6P; higher = faster cleavage; RNA array
# CONDITION_SUMMARY: with glucosamine-6-phosphate
Fewer inactive variants are shown than the library holds.
The following variants are listed with their measured self-cleavage kobs at 40 uM GlcN6P values.

Would you please look over these solved cases?
sequence_variant="G37A C50G C70G" readout_value="4.31e-05 s⁻¹"
sequence_variant="A36U U69G" readout_value="3.66e-05 s⁻¹"
sequence_variant="A48C C68U" readout_value="< 1e-05 s⁻¹"
sequence_variant="C34U C58G U65G C70A" readout_value="0.000236 s⁻¹"
sequence_variant="U31C C67A" readout_value="2.9e-05 s⁻¹"

QUERY: Dear colleague, I am looking for the recorded self-cleavage kobs at 40 uM GlcN6P of the following variant: A42G U65A
RESULT: 0.000318 s⁻¹

QUERY: Lookup G7A A39G C58G
RESULT: < 1e-05 s⁻¹

QUERY: Lookup A39C A52U C71U
RESULT: < 1e-05 s⁻¹

QUERY: Lookup U56G C71G
RESULT: 6.71e-05 s⁻¹

QUERY: Lookup G41C A52U
RESULT: < 1e-05 s⁻¹

QUERY: Lookup C34A G44U G51C
RESULT: < 1e-05 s⁻¹
